Molecular target: Adenosine receptor A1 (Rattus norvegicus, UniProt P25099)
Sequence (P25099 whole entry): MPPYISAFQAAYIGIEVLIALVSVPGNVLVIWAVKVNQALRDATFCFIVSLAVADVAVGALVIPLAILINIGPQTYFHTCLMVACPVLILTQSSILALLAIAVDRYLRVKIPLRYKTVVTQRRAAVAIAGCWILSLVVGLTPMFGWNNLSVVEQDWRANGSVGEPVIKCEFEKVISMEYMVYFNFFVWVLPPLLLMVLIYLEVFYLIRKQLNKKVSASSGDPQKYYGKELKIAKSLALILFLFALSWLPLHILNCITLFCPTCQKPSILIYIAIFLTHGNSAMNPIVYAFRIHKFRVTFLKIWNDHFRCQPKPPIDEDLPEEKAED
recordedMetric: pKi
Notebook: values listed as pKi are -log10 of the concentration (mol/L).

Observe how each entry below is paired with its result.
[
  {
    "testSmiles": "c1ccc(Nc2nc3ccccc3c3[nH]c(C4CCCC4)nc23)cc1",
    "obsValue": 6.64
  },
  {
    "testSmiles": "Nc1[nH]c2ccccc2c2nc(-c3ccccc3)nc1-2",
    "obsValue": 7.47
  },
  {
    "testSmiles": "c1ccc2c3ncnc-3c(NC3CCCC3)[nH]c2c1",
    "obsValue": 7.37
  },
  {
    "testSmiles": "c1ccc(Nc2[nH]c3ccccc3c3nc(-c4ccccc4)nc2-3)cc1",
    "obsValue": 6.34
  },
  {
    "testSmiles": "c1ccc(Nc2[nH]c3ccccc3c3ncnc2-3)cc1",
    "obsValue": 5.68
  }
]

Task item: Jot down pKi (Adenosine receptor A1 (Rattus norvegicus, UniProt P25099)) of Nc1[nH]c2ccccc2c2ncnc1-2 .
Reply: 5.80

Task item: Jot down pKi (Adenosine receptor A1 (Rattus norvegicus, UniProt P25099)) of c1ccc(-c2nc3c(NC4CCCC4)[nH]c4ccccc4c-3n2)cc1 .
Reply: 8.00

###

biological target: Adenosine receptors; A1 & A2 (Rattus norvegicus) (UniProt P29276+P25099+P30543); assay: Ratio of Ki for adenosine A2 and A1 receptors; type: protein assay
Assign class by Ratio: not lower than 3 means 1.0; lower than 3 means 0.0.

Worked set:
[
  {
    "testSmiles": "c1ccc2c3ncnc-3c(NC3CCCC3)[nH]c2c1",
    "group": 1.0
  },
  {
    "testSmiles": "C[C@@H](Cc1ccccc1)Nc1[nH]c2ccccc2c2ncnc1-2",
    "group": 0.0
  },
  {
    "testSmiles": "c1ccc(Nc2[nH]c3ccccc3c3ncnc2-3)cc1",
    "group": 1.0
  },
  {
    "testSmiles": "Nc1[nH]c2ccccc2c2ncnc1-2",
    "group": 0.0
  }
]

Now examine the next entry.
Task item: Quick check, Ratio >= 3? C[C@H](Cc1ccccc1)Nc1[nH]c2ccccc2c2ncnc1-2
Reply: 0.0

###

pKi, Adenosine receptor A1 (Bos taurus): measured values
Notebook: values listed as pKi are -log10 of the concentration (mol/L).

[
  {
    "testSmiles": "c1ccc2c3ncnc-3c(NC3CCCC3)[nH]c2c1",
    "pKi": 8.00
  },
  {
    "testSmiles": "c1ccc(Nc2[nH]c3ccccc3c3ncnc2-3)cc1",
    "pKi": 6.31
  },
  {
    "testSmiles": "C[C@@H](Cc1ccccc1)Nc1[nH]c2ccccc2c2ncnc1-2",
    "pKi": 6.34
  },
  {
    "testSmiles": "Nc1[nH]c2ccccc2c2nc(-c3ccccc3)nc1-2",
    "pKi": 7.77
  },
  {
    "testSmiles": "C[C@H](Cc1ccccc1)Nc1[nH]c2ccccc2c2ncnc1-2",
    "pKi": 7.13
  }
]

Task item: Jot down pKi (Adenosine receptor A1 (Bos taurus)) of c1ccc2c3nc(C4CCCC4)nc-3c(NC3CCCC3)[nH]c2c1 .
Reply: 8.04
